Measured cytotoxicity at 10 µM accompanies every entry in the list below.
# assay: Toxicity liver stage against HepG2, at 10uM
# Format: cell-based
# Design: test concentration 10 uM, cell line HepG2-A16-CD81EGFP
# condition_set: human, HepG2-A16-CD81EGFP cells; read-out: INHIBITION
quantity: cytotoxicity at 10 µM (%)

                                   molecule  recorded_result
0  O=C1CO[C@@H]2CN(Cc3cccs3)C[C@H]2N1Cc1cccnc1            -77.6
1  NC(=O)NCC1CCCCN1C(=O)c1cccc(Cl)c1 (stereo unspecified)             -7.6
2  CCNC(=O)C1CN(Cc2c(-c3cc(C)on3)nn(C)c2Cl)CCO1 (stereo unspecified)            -4.37
3     CN(CC(N)=O)C(=O)c1cnc(-c2ccc(Cl)s2)s1            -5.02
4        CC(C)Cc1nc(OCC(=O)O)c(C#N)c2c1CCC2            -5.93
5  Cc1ncc(CN2CCOC(c3ccc(-c4cc[nH]n4)cn3)C2)s1 (stereo unspecified)            -16.5

Origin of values: ChEMBL document CHEMBL4513216
